# PROTOCOL_NOTES: RP-HPLC retention on IAM.PC.DD2 (immobilized artificial membrane) column, buffer pH 7.4-acetonitrile
# Type: physicochemical
# TEST_SETTINGS: extrapolated to buffer pH 7.4 as mobile phase, 25 °C
# Method: Retention parameters reported as the log k values were calculated by the expression:(1) logk=log(tR−t0)/t0 where tR and t0 are the retention times of the solute and a non-retained compound (citric acid), respectively. […] As mobile phases buffer-acetonitrile mixtures were used. […] With the ODS column acetonitrile concentration in the effluent, expressed as a volume fraction (φ, v/v), was changed in the range 0.3–0.6, with the constant step of 0.1. […] They were detected under UV light at 210 and 254 nm. […]
EXPERIMENTAL_ENDPOINT: log kw, IAM

Take a look at these entries with their results.
O=c1c(-c2ccccc2)nnc2n1CCN2c1cccc(Cl)c1 = 2.64
O=c1c(-c2ccco2)nnc2n1CCN2c1ccc(Cl)cc1 = 2.02
Cc1cccc(N2CCn3c2nnc(-c2ccco2)c3=O)c1C = 1.42
Cc1cccc(N2CCn3c2nnc(-c2ccccc2)c3=O)c1C = 1.85
Cc1cccc(N2CCn3c2nnc(-c2ccccc2)c3=O)c1 = 2.26

(A) COc1ccccc1N1CCn2c1nnc(-c1ccco1)c2=O
(B) Cc1ccc(N2CCn3c2nnc(Cc2cccc(Cl)c2)c3=O)cc1
IN: Which value of log kw, IAM is greater, the one for A or the one for B ? Return value: the label identifying the chosen record.
OUT: B
(B: 2.78, A: 1.11)

Hello, the source for this data is paper PMC7037052, in case you need it.
